Below is a list of entries, each paired with its recorded Percent Effect value.
# Test system: Wolbachia pipientis
# Protocol: Anti-Wolbachia Cell-Based Screen
# Format: functional
# Parameters: scale not given: in the data most compounds retested in dose-response had high values
# Assay Conditions: 5 µM
The whole screen tested about 48,000 compounds, of which about 13,000 (27%) showed an effect of 50% or more. The list shows a part of the results.

Compound: COCC1CN(Cc2ccc(C)o2)Cc2nnn(C)c21.O=C(O)C(F)(F)F (stereo unspecified)
Percent Effect: 3.893%

Compound: Cc1ncc2c(n1)CN(Cc1cccc3c1OCCO3)CC2
Percent Effect: -20.45%

Compound: CCOc1ccc(C(=O)N2Cc3cnc(CC)nc3C2)o1
Percent Effect: -12.82%

Compound: c1cnc(Nc2cc(CCC3CCNCC3)ccn2)cn1
Percent Effect: 61.48%

Compound: NC(=O)CN1CCCN(C(=O)c2ccn(-c3cccc(F)c3)n2)CC1
Percent Effect: -12.78%

Compound: CCn1c(C(=O)N2CCN(CC(C)O)CC2)cc2ccccc21 (stereo unspecified)
Percent Effect: -3.08%

Compound: c1cc(CN2CCc3cncnc3C2)c2c(c1)OCCO2
Percent Effect: 51.63%

Compound: c1csc(-c2noc(CN3CCc4cncnc4C3)n2)c1
Percent Effect: 93.12%

Compound: CCS(=O)(=O)N1CCCC(n2nnn(-c3ccccc3)c2=O)C1 (stereo unspecified)
Percent Effect: 133%

Compound: O=C(CO)N1CCC(CCc2ccnc(Nc3cnccn3)c2)CC1
Percent Effect: 125.8%

Compound: CN1CCCC(c2cncc(C(=O)NCc3ccccc3Cl)n2)C1.O=CO (stereo unspecified)
Percent Effect: 120.9%

Compound: CCc1ncc2c(n1)CN(Cc1nc(-c3ccsc3)no1)CC2
Percent Effect: -2.841%

Compound: C1CCC(OCCN2CCN(CCOC3CCCCC3)CC2)CC1
Percent Effect: 16.33%

Compound: Cn1c2c(c(=O)n1C)CN(C(=O)c1cnccn1)CCC2
Percent Effect: 106.7%

Compound: COCCN(Cc1cc(O)nc2ccccc12)C(=O)NC(C)C
Percent Effect: 129.1%

Compound: Cc1ccoc1C(=O)N1CCCc2c(c(=O)n(C)n2C)C1
Percent Effect: -8.814%

Compound: CCS(=O)(=O)N1CCCC(c2nc3ccccc3n2C(C)C)C1 (stereo unspecified)
Percent Effect: -13.43%

Compound: NC(=O)C1CCN(S(=O)(=O)c2cnn(-c3ccccc3)c2)C1 (stereo unspecified)
Percent Effect: -1.203%

Compound: Cn1c2c(c(=O)n1C)CN(C(=O)c1ccsc1)CCC2
Percent Effect: -11.42%

Compound: O=S(=O)(CCNCc1cc(O)c2cc(F)ccc2n1)N1CCCC1
Percent Effect: -19.62%

Compound: CCn1c(C(=O)N2CCN(C(=O)NC(C)C)CC2)cc2ccccc21
Percent Effect: -5.351%

Compound: CS(=O)(=O)N1CCCC(n2nnn(-c3ccccc3)c2=O)C1 (stereo unspecified)
Percent Effect: 149.4%

Compound: Cc1nnc(CN(C)C2CCN(c3cccc(-c4cscn4)c3)CC2)o1
Percent Effect: -15.24%

Compound: CCC(O)CN1CCN(C(=O)c2cc3ccccc3n2CC)CC1 (stereo unspecified)
Percent Effect: 81.21%

Compound: Cn1nc2c(cc1=O)CN(Cc1nc(-c3cccs3)no1)CC2
Percent Effect: -4.413%

Compound: c1csc(-c2noc(CN3CCc4c(ncn4C4CC4)C3)n2)c1
Percent Effect: -1.185%

Compound: CCn1c(CN2CCN(CC(N)=O)CC2)nc2c(F)cccc21
Percent Effect: -7.265%

Compound: Cc1ccsc1C(=O)N1CCCc2c(c(=O)n(C)n2C)C1
Percent Effect: 9.7%

Compound: CC(C)c1ccc(OCCNC(=O)c2ccoc2)cc1
Percent Effect: 6.267%

Compound: Cn1nc(CN2CCCC2)c2c1CN(C(=O)c1ccncc1F)CC2
Percent Effect: -1.138%

Compound: CS(=O)(=O)N1CCCC(C(=O)N2CCOc3ccccc32)C1 (stereo unspecified)
Percent Effect: -6.293%

Compound: Cc1cccc2cc(C(=O)N3CCSCC3)n(C)c12
Percent Effect: -17.56%

Compound: COCC1CN(Cc2ccc(C)s2)Cc2nnn(C)c21.O=C(O)C(F)(F)F (stereo unspecified)
Percent Effect: 106%

Compound: COc1ccc2nc(CNC(=O)c3cc(C(C)C)no3)[nH]c2c1
Percent Effect: -7.08%

Compound: CC(C)NC(=O)N(Cc1cc(O)nc2ccccc12)C(C)C
Percent Effect: 134.4%

Compound: CC(O)CN1CCN(C(=O)c2cc3ccccc3n2C)CC1 (stereo unspecified)
Percent Effect: 80.19%

Compound: CC(C)N(CC(N)=O)Cc1csc(Cc2ccccc2)n1
Percent Effect: -4.617%

Compound: CCc1ncc2c(n1)CN(Cc1cccc3c1OCCO3)CC2
Percent Effect: -19.5%

Compound: CC(C)c1ncc2c(n1)CN(Cc1nc(-c3cccs3)no1)CC2
Percent Effect: 1.311%

Compound: CCn1c(C(=O)N2CCCN(CC(N)=O)CC2)cc2ccccc21
Percent Effect: 113.2%

Compound: CC(C)CNC(=O)NC(=O)CNc1ccccc1SCC(C)C#N (stereo unspecified)
Percent Effect: 9.026%

Data provenance: ChEMBL document CHEMBL3988442
